# Test system: Puccinia triticina
# Assay info: Wheat brown rust (PUCCRT), disease control on wheat seedlings
# Format: in vivo
# Run conditions: 72 h, low volume application at 121.5 g/H, 3 Day Curative, read-out: PUCCRT disease control, 3DC, LV activity
Quantity measured: pest or weed control at 121.5 g/ha

These solved cases illustrate the format of a correct answer.
Query :: Indicate its recorded pest or weed control at 121.5 g/ha; the compound in question is COc1ccnc(C(=O)N[C@@H](C)C(=O)O[C@@H](C)[C@@H](c2ccc(F)cc2C)C2CCCCC2)c1OCOC(C)=O
Result :: < 0%

Query :: In one line, give reported pest or weed control at 121.5 g/ha of the entry COc1ccnc(C(=O)N[C@@H](C)C(=O)O[C@@H](C)[C@H](c2cc(C)ccc2C)C(C)C)c1OC(C)=O .
Result :: < 80%

Query :: Tell us which pest or weed control at 121.5 g/ha value is on record for COc1cc[n+]([O-])c(C(=O)N[C@@H](C)C(=O)O[C@@H](C)[C@@H](c2ccc(C)cc2C)C2CCCC2)c1O
Result :: < 0%

Query :: Identify the reported pest or weed control at 121.5 g/ha for the following entry. COc1ccnc(C(=O)N[C@@H](C)C(=O)O[C@H](C)[C@H](c2ccc(F)cc2C)C2CCCC2)c1OC(C)=O
Result :: < 0%

Query :: Tell me measured pest or weed control at 121.5 g/ha for CCC(C)C(=O)Oc1c(OC)ccnc1C(=O)N[C@@H](C)C(=O)O[C@@H](C)[C@H](c1ccc(F)cc1C)C(C)C (stereo partly drawn) please.
Result :: < 80%

Each compound below has a recorded value; state its pest or weed control at 121.5 g/ha.
1. COCCC(=O)Oc1c(OC)ccnc1C(=O)N[C@@H](C)C(=O)O[C@@H](C)[C@H](c1ccc(F)cc1C)C(C)C
2. COc1ccnc(C(=O)N[C@@H](C)C(=O)O[C@@H](C)[C@H](c2ccc(C)c(F)c2)C(C)C)c1OC(C)=O
3. COc1ccnc(C(=O)N[C@@H](C)C(=O)O[C@@H](C)[C@H](c2ccc(F)c(C)c2)C(C)C)c1OC(C)=O
4. COc1ccnc(C(=O)N[C@@H](C)C(=O)O[C@@H](C)[C@H](c2ccc(F)cc2C)C(C)C)c1OC(C)=O
5. COc1ccnc(C(=O)N[C@@H](C)C(=O)O[C@@H](C)[C@H](c2ccc(F)c(C)c2)C(C)C)c1OCOC(C)=O
6. COCCC(=O)Oc1c(OC)ccnc1C(=O)NCC(=O)O[C@@H](C)[C@H](c1ccc(F)cc1C)C(C)C

Result ::
> 80%
< 80%
> 80%
> 80%
> 80%
> 80%

Each of the following entries comes with a recorded value; kindly state pest or weed control at 121.5 g/ha for each.
1. COc1ccnc(C(=O)N[C@@H](C)C(=O)O[C@@H](C)[C@H](c2ccc(F)cc2C)C(C)C)c1OC(=O)C1CCCC1
2. COc1cc(F)ccc1[C@@H](C(C)C)[C@H](C)OC(=O)[C@H](C)NC(=O)c1nccc(OC)c1OC(C)=O
3. COc1ccnc2c(=O)n([C@@H](C)C(=O)O[C@@H](C)[C@H](c3ccc(F)cc3C)C(C)C)c(=O)oc12
4. COc1ccnc(C(=O)N[C@@H](CC(C)C)C(=O)O[C@@H](C)[C@H](c2ccc(F)cc2C)C(C)C)c1OC(C)=O

Result ::
1. < 80%
2. < 80%
3. > 80%
4. < 80%

Quick request: pest or weed control at 121.5 g/ha for each listed item, please.
1. CCC(CC)[C@@H](c1ccccc1)C(C)OC(=O)[C@H](C)NC(=O)c1nccc(OC)c1OC(C)=O (stereo partly drawn)
2. COc1cc(C)ccc1[C@H](C(C)C)[C@H](C)OC(=O)[C@H](C)NC(=O)c1nccc(OC)c1OCOC(C)=O
3. COc1cc(C)ccc1[C@H](C(C)C)[C@H](C)OC(=O)[C@H](C)NC(=O)c1nccc(OC)c1OC(C)=O
4. COc1cc(F)ccc1[C@H](C1CCC1)[C@H](C)OC(=O)[C@H](C)NC(=O)c1nccc(OC)c1OCOC(C)=O
5. COc1ccccc1[C@H](C(C)C)[C@H](C)OC(=O)[C@H](C)NC(=O)c1nccc(OC)c1OCOC(C)=O
6. COc1cc(F)ccc1[C@@H](C1CCCCC1)[C@H](C)OC(=O)[C@H](C)NC(=O)c1nccc(OC)c1OCOC(C)=O
7. COc1ccnc(C(=O)N[C@@H](C)C(=O)O[C@@H](C)[C@H](c2ccc(C)cc2)C(C)C)c1OCOC(C)=O
8. COc1ccnc(C(=O)N[C@@H](C)C(=O)O[C@@H](C)[C@@H](c2ccccc2)C(C)C)c1OCOC(C)=O

Result ::
1: > 80%; 2: > 80%; 3: > 80%; 4: < 80%; 5: > 80%; 6: < 80%; 7: > 80%; 8: > 80%

Working through the 2 compounds below one at a time, give pest or weed control at 121.5 g/ha for each.
1. COc1ccnc2c(=O)n([C@@H](C)C(=O)O[C@@H](C)[C@@H](c3ccc(C)cc3C)C3CCCCC3)c(=O)oc12
2. COc1ccnc(C(=O)N[C@@H](C)C(=O)O[C@@H](C)[C@H](c2ccccc2)C(C)C)c1OCOC(C)=O

Result ::
1. < 0%
2. > 80%

Batch request: pest or weed control at 121.5 g/ha per item, same order as input.
1. COCCC(=O)Oc1c(OC)ccnc1C(=O)N[C@@H](C)C(=O)O[C@@H](C)[C@H](c1ccc(F)cc1OC)C1CCC1
2. COc1ccc([C@H](C(C)C)[C@H](C)OC(=O)[C@H](C)NC(=O)c2nccc(OC)c2OCOC(C)=O)c(F)c1

Result ::
1: < 80%; 2: > 80%

Sourced from patent US20180186742A1
